MEASURED_TARGET: Recombinant human cathepsin S (CatS) (Homo sapiens)
Construct: made in house
TEST_NAME: Recombinant human cathepsin S (CatS) fluorogenic substrate inhibition assay
Assay type: biochemical
CONDITION_INFO: average of results obtained; substrate Z-Valine-Valine-Arginine-AMC 10 μM, pH 5.0; read-out: CatS IC50
pIC50: −log10 of the molar value.
VALUE_KIND: pIC50

Consider the worked cases shown below.
MOLECULE: CS(=O)(=O)N1CCc2c(c(-c3ccc(Cl)c(CC(=O)Nc4ccccc4)c3)nn2CCCN2CCOCC2)C1
VALUE_OBSERVED: 5.55
//
MOLECULE: CS(=O)(=O)N1CCc2c(c(-c3ccc(C(F)(F)F)c(CNC(=O)c4ccc(F)cc4)c3)nn2CC(O)CN2CC[C@H](CO)C2)C1 (stereo partly shown)
VALUE_OBSERVED: 6.74
//
MOLECULE: CS(=O)(=O)N1CCc2c(c(-c3ccc(C(F)(F)F)c(CNC(=O)c4ccccc4Cl)c3)nn2CC(O)CN2CCCC2)C1 (stereo not shown)
VALUE_OBSERVED: 6.66
//
MOLECULE: CS(=O)(=O)N1CCc2c(c(-c3ccc(C(F)(F)F)c(CNC(=O)c4ccc(O)cc4)c3)nn2CCCN2CCC3(CCNC3=O)CC2)C1
VALUE_OBSERVED: 7.05

(A) CS(=O)(=O)N1CCc2c(c(-c3ccc(C(F)(F)F)c(CNC(=O)c4cccc(C#N)c4)c3)nn2CC(O)CN2CCCC2)C1 (stereo not shown)
(B) COC1CCN(CC(O)Cn2nc(-c3ccc(Cl)c(CNC(=O)c4ccc(F)cc4)c3)c3c2CCN(S(C)(=O)=O)C3)CC1 (stereo not shown)
-- ask Which record would sort first by descending pIC50, A or B ? Reply with the label of the item you choose.
-- reply B

(a) CS(=O)(=O)N1CCc2c(c(-c3ccc(C(F)(F)F)c(CNC(=O)c4ccccc4O)c3)nn2CCCN2CCC3(CCNC3=O)CC2)C1
(b) O=C(NCc1cc(-c2nn(CC(O)CN3CCC4(CCNC4=O)CC3)c3c2CNCC3)ccc1C(F)(F)F)c1ccc(F)cc1 (stereo not shown)
(c) CC(=O)NC1CCN(CC(O)Cn2nc(-c3ccc(C(F)(F)F)c(CNC(=O)CC(C)C)c3)c3c2CCN(S(C)(=O)=O)C3)C1 (stereo not shown)
(d) CC(=O)N1CCc2c(c(-c3ccc(C(F)(F)F)c(CNC(=O)c4ccc(F)cc4)c3)nn2CC(O)CN2CCC3(CCNC3=O)CC2)C1 (stereo not shown)
-- ask Sort these molecules on pIC50 so the largest reading comes first. List labels; respect the requested ordering.
-- reply d, a, c, b
(d: 7.15, a: 6.62, c: 6.42, b: 6.03)

(a) CC1(C)CCN(CCCn2nc(-c3ccc(C(F)(F)F)c(CNCc4ccc(F)cc4)c3)c3c2CCN(C(=O)CO)C3)CC1
(b) CS(=O)(=O)N1CCc2c(c(-c3ccc(Cl)c(CNC(=O)c4cccs4)c3)nn2CCCN2CCCC2)C1
-- ask Kindly compare a with b and tell me which has the lower pIC50 figure. Reply with the label of the item you choose.
-- reply b

(I) CS(=O)(=O)N1CCc2c(c(-c3ccc(Cl)c(CNC(=O)c4ccccc4)c3)nn2CC(O)CN2CCOCC2)C1 (stereo not shown)
(II) CS(=O)(=O)N1CCc2c(c(-c3ccc(Cl)c(CNC(=O)c4ccc(F)cc4)c3)nn2CC(O)CN2CCC(F)(F)CC2)C1 (stereo not shown)
(III) CS(=O)(=O)N1CCc2c(c(-c3ccc(Cl)c(CNC(=O)c4ccc(F)cc4)c3)nn2CC(O)CN2CCC(F)(F)C2)C1 (stereo not shown)
-- ask Ascending by pIC50, please. List labels; respect the requested ordering.
-- reply I, III, II
(I: 6.19, III: 6.74, II: 7.05)

====

MEASURED_TARGET: Recombinant human cathepsin S (CatS) (Homo sapiens, UniProt P25774)
Construct: made in house
Sequence (P25774 115-331): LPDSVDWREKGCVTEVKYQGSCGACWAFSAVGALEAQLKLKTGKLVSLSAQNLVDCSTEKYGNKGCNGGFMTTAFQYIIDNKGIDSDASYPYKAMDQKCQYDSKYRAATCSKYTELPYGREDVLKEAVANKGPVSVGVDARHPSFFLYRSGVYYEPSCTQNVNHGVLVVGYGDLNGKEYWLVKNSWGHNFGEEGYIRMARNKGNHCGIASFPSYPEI
TEST_NAME: Recombinant human cathepsin S (CatS) fluorogenic substrate inhibition assay
Assay type: biochemical
VALUE_KIND: IC50 (nM)

COMPOUND: CS(=O)(=O)N1CCc2c(c(-c3ccc(C(F)(F)F)c(CNC(=O)Oc4ccccc4)c3)nn2CCCN2CCC3(CCNC3=O)CC2)C1
UNITS_LABEL: nM
IC50: 200

(A) CS(=O)(=O)N1CCc2c(c(-c3ccc(C(F)(F)F)c(CNC(=O)c4cccc(C(=O)O)c4)c3)nn2CC(O)CN2CCCC2)C1 (stereo not drawn)
(B) CS(=O)(=O)N1CCc2c(c(-c3ccc(Cl)c(CNC(=O)c4ccc(F)cc4)c3)nn2CC(O)CN2CCC(C(F)(F)F)CC2)C1 (stereo not drawn)
-- ask Kindly compare A with B and tell me which has the lower IC50 figure. Reply with the label of the item you choose.
-- reply B
(B: 70 nM, A: 770 nM)

====

MEASURED_TARGET: Recombinant human cathepsin S (CatS) (Homo sapiens)
Construct: made in house
TEST_NAME: Recombinant human cathepsin S (CatS) fluorogenic substrate inhibition assay
Assay type: biochemical
Protocol: Recombinant human cathepsin S (CatS) was expressed in the baculovirus system and purified in one step with a thiopropyl-sepharose column. […] The assay is run in 150 mM sodium acetate pH 5.0 containing 1.5 mM DTT and 150 mM NaCl. […] Measurements are taken every min for 20 min. The rate is calculated from the slope of the increase in fluorescence and the percent inhibition is calculated from this.
Catalogue of pIC50 readings, one per entry.
Formally, pIC50 is defined as -log10 of the concentration c, with c in mol/L.

COMPOUND: CS(=O)(=O)N1CCc2c(c(-c3ccc(C(F)(F)F)c(CNC(=O)Oc4ccc(F)cc4)c3)nn2CC(O)CN2CCCC2)C1 (stereo not drawn)
VALUE_OBSERVED: 6.25

-- ask Form field: reported pIC50 of CS(=O)(=O)N1CCc2c(c(-c3ccc(Cl)c(CNC(=O)c4ccccc4)c3)nn2CCCN2CCCC2)C1
-- reply 6.49

-- ask Form field: reported pIC50 of CS(=O)(=O)N1CCc2c(c(-c3ccc(C(F)(F)F)c(CNC(=O)Oc4ccccc4)c3)nn2CC(O)CN2CCCC2)C1 (stereo not drawn)
-- reply 6.28
